# Assay Summary: xn = mol fraction of the nth substance listed
# Run Parameters: 308.15 K; 100 kPa; x1 = 0.7
± gives the uncertainty stated by the source.
Measurement Label: viscosity

Consider the worked cases shown below.
Please fill in: viscosity reported for CCCCCCCCCCCCC + CCCCO = 1.351 ± 0.029 mPa·s

The reported viscosity of the compound CCCCCCCCCCCCCC[P+](CCCCCC)(CCCCCC)CCCCCC.c1c[n-]nn1 + CCCCCCCCCCCCCC[P+](CCCCCC)(CCCCCC)CCCCCC.O=S(=O)([N-]S(=O)(=O)C(F)(F)F)C(F)(F)F was 214 ± 26 mPa·s

Lab note: measured viscosity of C1C[C@@H]2[C@H]3CC[C@H](C3)[C@@H]2C1 + CCCCCCCCCC was 1.441 ± 0.032 mPa·s

Now consider a different compound.
# compound CCCCCCCCCCCCCC[P+](CCCCCC)(CCCCCC)CCCCCC.c1c[n-]nn1 + CCCCCCn1cc[n+](C)c1.O=S(=O)([N-]S(=O)(=O)C(F)(F)F)C(F)(F)F ; its viscosity = 274 ± 34 mPa·s

====

# Assay Summary: xn = mol fraction of the nth substance listed
# Run Parameters: 318.15 K; 100 kPa; x1 = 0.7
Reported values of viscosity for individual entries
Your answer is read as mPa·s, so omit the unit and give the number.

Use the examples below as a reference point.
In plain terms, CCCCCCCCCCCCCC[P+](CCCCCC)(CCCCCC)CCCCCC.c1c[n-]nn1 + CCCCCCCCCCCCCC[P+](CCCCCC)(CCCCCC)CCCCCC.O=S(=O)([N-]S(=O)(=O)C(F)(F)F)C(F)(F)F has a documented viscosity of 129

The compound identified as CCCCCCCCCCCCCC[P+](CCCCCC)(CCCCCC)CCCCCC.c1c[n-]nn1 + CCCCCCn1cc[n+](C)c1.O=S(=O)([N-]S(=O)(=O)C(F)(F)F)C(F)(F)F registered its viscosity at 159

The compound listed as C1C[C@@H]2[C@H]3CC[C@H](C3)[C@@H]2C1 + CCCCCCCCCC shows viscosity equal to 1.238

Now look at this one.
Record CCCCCCCCCCCCC + CCCCO . Reported viscosity: 1.139

====

Overview of reported viscosity across a group of compounds:
# Assay Summary: xn = mol fraction of the nth substance listed
# Run Parameters: 303.15 K; 100 kPa; x1 = 0.7
± gives the uncertainty stated by the source.

Consider the reported viscosity for these compounds:
Lab note: measured viscosity of CCCCCCCCCCCCCC[P+](CCCCCC)(CCCCCC)CCCCCC.c1c[n-]nn1 + CCCCCCCCCCCCCC[P+](CCCCCC)(CCCCCC)CCCCCC.O=S(=O)([N-]S(=O)(=O)C(F)(F)F)C(F)(F)F was 284 ± 35 mPa·s

Reported viscosity ( CCCCCCCCCCCCCC[P+](CCCCCC)(CCCCCC)CCCCCC.c1c[n-]nn1 + CCCCCCn1cc[n+](C)c1.O=S(=O)([N-]S(=O)(=O)C(F)(F)F)C(F)(F)F ) = 369 ± 47 mPa·s

viscosity measured on CCCCCCCCCCCCC + CCCCO = 1.48 ± 0.032 mPa·s

Consider the record given below.
Lab note: measured viscosity of C1C[C@@H]2[C@H]3CC[C@H](C3)[C@@H]2C1 + CCCCCCCCCC was 1.562 ± 0.035 mPa·s

====

Parameter viscosity: see the listing below.
# Assay Summary: xn = mol fraction of the nth substance listed
# Run Parameters: 323.15 K; 100 kPa; x1 = 0.7
Respond numerically; units are mPa·s and should not be typed.

Observe how each entry below is paired with its result.
Short answer for CCCCCCCCCCCCCC[P+](CCCCCC)(CCCCCC)CCCCCC.c1c[n-]nn1 + CCCCCCn1cc[n+](C)c1.O=S(=O)([N-]S(=O)(=O)C(F)(F)F)C(F)(F)F : viscosity was 125

Record CCCCCCCCCCCCCC[P+](CCCCCC)(CCCCCC)CCCCCC.c1c[n-]nn1 + CCCCCCCCCCCCCC[P+](CCCCCC)(CCCCCC)CCCCCC.O=S(=O)([N-]S(=O)(=O)C(F)(F)F)C(F)(F)F , field viscosity: 103

The value of viscosity measured for the compound C1C[C@@H]2[C@H]3CC[C@H](C3)[C@@H]2C1 + CCCCCCCCCC turned out to be 1.155

Now for a further compound.
Documented viscosity of CCCCCCCCCCCCC + CCCCO : 1.052

====

# Run Parameters: 303.15 K; 101 kPa
// assign y if viscosity falls strictly below 1 mPa·s, else n (ties count as n)

The examples below pair each entry with its known result.
Here's an entry: `CCCCCCCN` . Is its viscosity below 1 mPa·s?
y

is_below(viscosity, 1 mPa·s) for `Cc1ccccc1Cl` ?
y

New cases:
I'd appreciate it if you could check whether `ClCCCCCl` has viscosity smaller than 1 mPa·s.
n

For `Nc1cccc(Cl)c1` , is the recorded viscosity below the cut-off of 1 mPa·s?
n

Identify whether the compound `CCCCN(CCO)CCO` records viscosity below 1 mPa·s.
n

Find out if reported viscosity for `CC12CCC(CC1)C(C)(C)O2` is less than 1 mPa·s
n

====

Recorded viscosity by entry
# Assay Summary: xn = mol fraction of the nth substance listed
# Run Parameters: 298.15 K; 100 kPa; x1 = 0.7
± gives the uncertainty stated by the source.

Observe how each entry below is paired with its result.
For this compound ( CCCCCCCCCCCCCC[P+](CCCCCC)(CCCCCC)CCCCCC.c1c[n-]nn1 + CCCCCCCCCCCCCC[P+](CCCCCC)(CCCCCC)CCCCCC.O=S(=O)([N-]S(=O)(=O)C(F)(F)F)C(F)(F)F ), measured viscosity is 385 ± 49 mPa·s

# compound CCCCCCCCCCCCCC[P+](CCCCCC)(CCCCCC)CCCCCC.c1c[n-]nn1 + CCCCCCn1cc[n+](C)c1.O=S(=O)([N-]S(=O)(=O)C(F)(F)F)C(F)(F)F ; its viscosity = 511 ± 66 mPa·s

Form field viscosity, entry CCCCCCCCCCCCC + CCCCO : 1.63 ± 0.035 mPa·s

Alright, here's another compound for you.
Record C1C[C@@H]2[C@H]3CC[C@H](C3)[C@@H]2C1 + CCCCCCCCCC , field viscosity: 1.7 ± 0.038 mPa·s

====

Overview of reported viscosity across a group of molecules:
# Run Parameters: 313.15 K; 101 kPa
± gives the uncertainty stated by the source.
I'd appreciate it if you included the unit after the number.

Measured viscosity of `CCCC[n+]1ccc(C)cc1.F[B-](F)(F)F` : 80.85 ± 11 mPa·s

Documented viscosity of `ClCCCCCl` : 1.043 ± 0.0099 mPa·s

Looking up `CCCCN(CCO)CCO` , I see its viscosity listed as 24.47 ± 0.37 mPa·s

# input for lookup
// recorded viscosity for `CC12CCC(CC1)C(C)(C)O2` : 1.676 ± 0.051 mPa·s

====

# Assay Summary: xn = mol fraction of the nth substance listed
# Run Parameters: 293.15 K; 100 kPa; x1 = 0.7
± gives the uncertainty stated by the source.
Measurement Label: viscosity
Your reply should be a number followed by the unit it is expressed in.

Example entries and their recorded answers appear below.
In plain terms, CCCCCCCCCCCCC + CCCCO has a documented viscosity of 1.807 ± 0.039 mPa·s

Reported viscosity for CCCCCCCCCCCCCC[P+](CCCCCC)(CCCCCC)CCCCCC.c1c[n-]nn1 + CCCCCCCCCCCCCC[P+](CCCCCC)(CCCCCC)CCCCCC.O=S(=O)([N-]S(=O)(=O)C(F)(F)F)C(F)(F)F was 533 ± 69 mPa·s

Reported viscosity for C1C[C@@H]2[C@H]3CC[C@H](C3)[C@@H]2C1 + CCCCCCCCCC was 1.859 ± 0.041 mPa·s

Now let's try a different one.
Entry CCCCCCCCCCCCCC[P+](CCCCCC)(CCCCCC)CCCCCC.c1c[n-]nn1 + CCCCCCn1cc[n+](C)c1.O=S(=O)([N-]S(=O)(=O)C(F)(F)F)C(F)(F)F ; viscosity = 725 ± 95 mPa·s
